// values below are reported T/C
# System: CD2F1 mice, L1210 leukemia ip, survival T/C
# assay_summary: NCI In Vivo Anticancer Drug Screen. Data for tumor model L1210 Leukemia (intraperitoneal) in CD2F1 (CDF1) mice
# conditions: endpoint: mean survival time; dose: 12.5 mg/kg/injection; schedule: Q01DX009 (ip); vehicle: other; higher = longer survival
Toxic doses and inconclusive results are not listed.

Observe how each entry below is paired with its result.
molecule	assayed_system	quantity_measured	measured_result
Cc1c(O)c2c(c(O)c1Cc1cccc(CN)c1)C(=O)c1ccccc1C2=O	CD2F1 mice, L1210 leukemia ip, survival T/C	T/C	90 % of control
COc1ccc(C(OC/C=C(\C)CCC=C(C)C)OC/C=C(\C)CCC=C(C)C)cc1	CD2F1 mice, L1210 leukemia ip, survival T/C	T/C	90 % of control
CCOC(=O)CC1=Cc2c(OC)ccc(OC)c2CC1	CD2F1 mice, L1210 leukemia ip, survival T/C	T/C	95 % of control
CC(=O)Oc1ccc2c(c1)C(=O)CCC=C2	CD2F1 mice, L1210 leukemia ip, survival T/C	T/C	103 % of control

Could you now consider this next molecule?
# input molecule: O=P(c1ccccc1)(c1ccccc1)c1ccccc1 (tested in a mixture with another compound) ; wanted: its T/C
100 % of control

These data points were gathered from PubChem BioAssay AID256.
